Consider the following compounds and their measured Activity readings.
Tested on: Tetranychus urticae
Experiment: Acaricidal against Tetranychus urticae (two-spotted spider mite) assessed as mortality at 12.5 ppm
Assay type: functional
Write the number in % without appending the unit.

stdin: Dear colleague, I am looking for the recorded Activity of the following compound: CCc1nn(C)c(C(=O)NCc2cccnc2)c1Cl
stdout: 0

stdin: # repeat for CCc1nn(C)c(C(=O)NCc2ccc(OC(C)C)nc2)c1Cl
stdout: 30

----------
Tested on: Tetranychus urticae
Test: Acaricidal against Tetranychus urticae (two-spotted spider mite) assessed as mortality at 12.5 ppm
Type: functional
Consider the following compounds and their measured Activity readings.
Write the number in % without appending the unit.

compound	observed-result
CCc1nn(C)c(C(=O)NCc2ccc(OC(C)C(F)(F)F)nc2)c1Cl (stereo unspecified)	100
CCCOc1ccc(CNC(=O)c2c(Cl)c(CC)nn2C)cn1	0
CCCc1ccc(CNC(=O)c2c(Cl)c(CC)nn2C)cn1	0
CCc1nn(C)c(C(=O)NCc2ccc(C(C)C)nc2)c1Cl	30

stdin: Dear colleague, I am looking for the recorded Activity of the following compound: CCCCCc1ccc(CNC(=O)c2c(Cl)c(CC)nn2C)cn1
stdout: 100

stdin: # repeat for CCCCOc1ccc(CNC(=O)c2c(Cl)c(CC)nn2C)cn1
stdout: 30

stdin: # repeat for CCc1nn(C)c(C(=O)NCc2ccc(CC(C)(C)C)nc2)c1Cl
stdout: 100

stdin: # repeat for CCc1nn(C)c(C(=O)NCc2ccc(OCC(F)(F)C(F)F)nc2)c1Cl
stdout: 80

stdin: # repeat for CCc1nn(C)c(C(=O)NCc2ccc(OCC(F)(F)C(F)(F)F)nc2)c1Cl
stdout: 80

stdin: # repeat for CCCCc1ccc(CNC(=O)c2c(Cl)c(CC)nn2C)cn1
stdout: 30

stdin: # repeat for CCc1nn(C)c(C(=O)NCc2ccc(OCCCC(F)(F)F)nc2)c1Cl
stdout: 80
